- Test system: LOC_OS03G04050-cb001
- experiment notes: thermal shift delta Tm vs DMSO control; higher = stronger stabilization (binding);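 also: purified Escherichia coli-expressed rice kinase domain construct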
- condition context: 12.5 µM; protein concentration 2 µM
Class TRUE: thermal shift delta Tm at least 0.5 °C. Class FALSE: thermal shift delta Tm below 0.5 °C.

molecule: C[C@@H](N)[C@H]1CC[C@H](C(=O)Nc2ccncc2)CC1
cat: FALSE
--
molecule: O=c1cc(-c2cccc3c2Sc2ccccc2S3)oc(N2CCOCC2)c1
cat: FALSE
--
molecule: CCOc1ccn(-c2ccc(F)cc2)c(=O)c1C(=O)Nc1ccc(Oc2ccnc(N)c2Cl)c(F)c1
cat: FALSE
--
molecule: CCOC(=O)c1cnc2ccc(-c3cncc(NS(=O)(=O)c4ccccc4)c3)cn12
cat: FALSE
--
molecule: CN1CCN(CCOc2cc(OC3CCOCC3)c3c(Nc4c(Cl)ccc5c4OCO5)ncnc3c2)CC1
cat: FALSE
--
molecule: CC(C)NC(=O)C1CCC(n2c(NC(=O)c3ccc(F)cc3)nc3ccc(CN4CCC(C(C)(C)O)CC4)cc32)CC1 (centres undefined)
cat: TRUE
--
molecule: C[C@@H](N)c1ccc(C(=O)Nc2ccnc3[nH]ccc23)cc1
cat: TRUE
--
molecule: N#Cc1ccc2ncnc(NCCc3ccccc3)c2c1
cat: FALSE

---

Entries and their thermal shift delta Tm values follow.
- System: LOC_OS06G16330-cb003
- Sequence (as listed by the source): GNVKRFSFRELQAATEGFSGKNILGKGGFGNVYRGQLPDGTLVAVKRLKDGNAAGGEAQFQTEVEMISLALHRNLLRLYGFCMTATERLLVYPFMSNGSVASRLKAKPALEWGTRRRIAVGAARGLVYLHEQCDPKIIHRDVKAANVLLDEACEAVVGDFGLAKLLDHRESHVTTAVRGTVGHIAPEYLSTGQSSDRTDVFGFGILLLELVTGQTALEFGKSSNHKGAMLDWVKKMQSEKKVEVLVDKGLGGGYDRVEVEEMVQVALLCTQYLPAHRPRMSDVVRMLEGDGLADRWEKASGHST
- experiment notes: thermal shift delta Tm vs DMSO control; higher = stronger stabilization (binding)
- condition context: 12.5 µM; protein concentration 2 µM
Counter-ions that a name gives are not always drawn.

compound: COc1cc(F)c(F)c(Nc2ccc(I)cc2F)c1NS(=O)(=O)C1(C[C@H](O)CO)CC1 [Refametinib (RDEA119, Bay 86-9766)]
system tested: LOC_OS06G16330-cb003
thermal shift delta Tm: 0.11 °C

compound: CCn1c(=O)c(-c2ccc(Cl)cc2Cl)cc2cnc(Nc3ccc(N4CCNCC4)c(F)c3)nc21
system tested: LOC_OS06G16330-cb003
thermal shift delta Tm: 6.75 °C

compound: Cc1cc(Nc2ncc(Cl)c(Nc3ccccc3S(=O)(=O)C(C)C)n2)c(OC(C)C)cc1C1CCNCC1
system tested: LOC_OS06G16330-cb003
thermal shift delta Tm: 4.76 °C

compound: C=C(C)[C@@H]1CC[C@]2(C)CC[C@]3(C)[C@H](CC[C@@H]4[C@@]5(C)CC[C@H](O)C(C)(C)[C@@H]5CC[C@]43C)[C@@H]12
system tested: LOC_OS06G16330-cb003
thermal shift delta Tm: -2.09 °C

compound: Clc1ccc(Nc2nnc(Cc3ccncc3)c3ccccc23)cc1 [Vatalanib (PTK787) 2HCl]
system tested: LOC_OS06G16330-cb003
thermal shift delta Tm: 0.09 °C

compound: CC(C)S(=O)(=O)c1ccc2nccc(Nc3ccc4scnc4c3)c2c1
system tested: LOC_OS06G16330-cb003
thermal shift delta Tm: 2.09 °C

compound: CC#CC(=O)N1CC[C@@H](n2c(=O)n(-c3ccc(Oc4ccccc4)cc3)c3c(N)ncnc32)C1 [ONO-4059 (GS-4059) hydrochloride]
system tested: LOC_OS06G16330-cb003
thermal shift delta Tm: -0.41 °C

compound: C[C@@H](Oc1cc(-n2cnc3ccc(CN4CCN(C)CC4)cc32)sc1C(N)=O)c1ccccc1C(F)(F)F
system tested: LOC_OS06G16330-cb003
thermal shift delta Tm: 2.19 °C

compound: O=C(NOCCO)c1ccc2cncn2c1Nc1ccc(I)cc1F
system tested: LOC_OS06G16330-cb003
thermal shift delta Tm: -0.27 °C

compound: COc1ccc(Cl)c(Nc2nc3ccccc3nc2NS(=O)(=O)c2cccc(NC(=O)C(C)(C)N)c2)c1
system tested: LOC_OS06G16330-cb003
thermal shift delta Tm: 1.96 °C

compound: CS(=O)(=O)N1CCc2c(-c3cnc(N)nc3)nc(N3CCOCC3)nc21
system tested: LOC_OS06G16330-cb003
thermal shift delta Tm: 0.69 °C

compound: Cc1[nH]nc2ccc(-c3cncc(OC[C@@H](N)Cc4ccccc4)c3)cc12
system tested: LOC_OS06G16330-cb003
thermal shift delta Tm: 0.93 °C

compound: C=CC(=O)Nc1cccc(Nc2nc(Nc3ccc(N4CCN(C(C)=O)CC4)cc3OC)ncc2C(F)(F)F)c1
system tested: LOC_OS06G16330-cb003
thermal shift delta Tm: 4.77 °C

compound: CC[C@@H]1C(=O)N(C)c2cnc(Nc3ccc(C(=O)N[C@H]4CC[C@H](N5CCN(CC6CC6)CC5)CC4)cc3OC)nc2N1C(C)C
system tested: LOC_OS06G16330-cb003
thermal shift delta Tm: 0.46 °C

compound: COc1ccc(COc2ccc(Cc3cnc(N)nc3N)cc2OC)cc1
system tested: LOC_OS06G16330-cb003
thermal shift delta Tm: 1.65 °C

compound: O=c1c(O)c(-c2ccc(O)c(O)c2)oc2cc(O)cc(O)c12
system tested: LOC_OS06G16330-cb003
thermal shift delta Tm: 5.31 °C

compound: O=C(Nc1cccc(Nc2ncc(Br)c(NCCc3cnc[nH]3)n2)c1)N1CCCC1
system tested: LOC_OS06G16330-cb003
thermal shift delta Tm: 8.57 °C

compound: O=c1ncn2nc(Sc3ccc(F)cc3F)ccc2c1-c1c(Cl)cccc1Cl
system tested: LOC_OS06G16330-cb003
thermal shift delta Tm: -0.01 °C

compound: COc1cc(CCc2cc(NC(=O)c3ccc(N4CC(C)NC(C)C4)cc3)n[nH]2)cc(OC)c1 (configuration not stated)
system tested: LOC_OS06G16330-cb003
thermal shift delta Tm: 2.54 °C

compound: COc1cc(Nc2ncc(F)c(Nc3ccc4c(n3)N(COP(=O)(O)O)C(=O)C(C)(C)O4)n2)cc(OC)c1OC [R788 (Fostamatinib) Disodium]
system tested: LOC_OS06G16330-cb003
thermal shift delta Tm: 6.28 °C

compound: CNS(=O)(=O)Nc1nccc(Cc2c(C)c3ccc(Oc4ncccn4)cc3oc2=O)c1F
system tested: LOC_OS06G16330-cb003
thermal shift delta Tm: 0.47 °C

compound: O=C(Nc1cccc(C(F)(F)F)c1)c1cccc2cc(Oc3cc(CO)ncn3)ccc12
system tested: LOC_OS06G16330-cb003
thermal shift delta Tm: -0.18 °C

compound: COCCNCc1ccc(-c2cc3nccc(Oc4ccc(NC(=O)C5(C(=O)Nc6ccc(F)cc6)CC5)cc4F)c3s2)nc1
system tested: LOC_OS06G16330-cb003
thermal shift delta Tm: 9.07 °C

compound: COc1ccc([C@@H]2OC[C@H]3[C@@H]2CO[C@@H]3c2ccc(O[C@@H]3O[C@H](CO)[C@@H](O)[C@H](O)[C@H]3O)c(OC)c2)cc1OC
system tested: LOC_OS06G16330-cb003
thermal shift delta Tm: -0.18 °C

compound: CC(C)(C)c1nc(-c2cccc(NS(=O)(=O)c3c(F)cccc3F)c2F)c(-c2ccnc(N)n2)s1
system tested: LOC_OS06G16330-cb003
thermal shift delta Tm: 3.39 °C

compound: CN(C)C/C=C/C(=O)Nc1ccc(C(=O)Nc2cccc(Nc3ncc(Cl)c(-c4c[nH]c5ccccc45)n3)c2)cc1
system tested: LOC_OS06G16330-cb003
thermal shift delta Tm: 11.2 °C

compound: CCOc1cc(C(=O)N2CCC(N3CCN(C)CC3)CC2)ccc1Nc1ncc2c(n1)N(C1CCCC1)c1ccccc1C(=O)N2C
system tested: LOC_OS06G16330-cb003
thermal shift delta Tm: 0.04 °C

compound: Cc1ccc(C(=O)Nc2ccc(Oc3cc4cnn(C)c4cc3-c3cn[nH]c3)c(F)c2)c(=O)n1-c1ccc(F)cc1
system tested: LOC_OS06G16330-cb003
thermal shift delta Tm: 5.02 °C

compound: Cc1nc(-c2cn3c(n2)-c2ccc(-c4cnn(C(C)(C)C(N)=O)c4)cc2OCC3)n(C(C)C)n1
system tested: LOC_OS06G16330-cb003
thermal shift delta Tm: -0.08 °C

compound: Cn1c2ccccc2c2c3c(c4c5ccccc5n(CCC#N)c4c21)CNC3=O
system tested: LOC_OS06G16330-cb003
thermal shift delta Tm: 7.19 °C

compound: CCn1c(C(=O)N(C2CC2)C2CC2)cc2c3c(ncn3C)c(Nc3cc(C)n(C)n3)nc21
system tested: LOC_OS06G16330-cb003
thermal shift delta Tm: 2.11 °C

compound: COc1ccc(/C=C/C(=O)C2(C(=O)/C=C/c3ccc(OC)c(OC)c3)CCCCC2)cc1OC
system tested: LOC_OS06G16330-cb003
thermal shift delta Tm: -0.37 °C
